# Tgt: JAK3 JH1 domain (UniProt P52333 822-1111)
# Sequence (P52333 822-1111): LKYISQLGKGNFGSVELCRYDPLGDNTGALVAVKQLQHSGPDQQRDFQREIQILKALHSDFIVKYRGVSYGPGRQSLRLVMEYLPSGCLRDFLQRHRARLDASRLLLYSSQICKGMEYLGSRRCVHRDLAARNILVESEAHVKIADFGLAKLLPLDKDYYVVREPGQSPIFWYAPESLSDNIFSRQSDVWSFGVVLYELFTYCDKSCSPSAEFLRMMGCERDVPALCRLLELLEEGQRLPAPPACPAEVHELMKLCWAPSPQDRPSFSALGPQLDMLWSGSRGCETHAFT
# Protocol: SPR
Observable: Kd (nM)
Respond numerically; units are nM and should not be typed.

Prompt line: What does the data say about its Kd? Entry: SOCS5 175–244 fragment (domain or fragment) RSLRQRLQDTVGLCFPMRTYSKQSKPLFSNKRKIHLSELMLEKCPFPAGSDLAQKWHLIKQHTAPVSPHS
Response line: 2100

The measurements presented in this section are drawn from paper PMC3749136.
